Recorded melting point by entry
endpoint.name: melting point

compound	endpoint.name	val
O=C(Nc1nc(C(F)(F)F)co1)C1c2ccccc2Oc2c(Cl)cccc21 (racemic)	melting point	212 °C
CC[C@H]1[C@H](O)CC(=O)N1c1ccc(C#N)c(Cl)c1C	melting point	142 to 146 °C
Cc1cc(F)ccc1Nc1c(C(=O)C(C)C)cnc2c(CO)cccc12	melting point	139 to 140 °C
Cc1scnc1-c1cc(C(C)(C)C)c(O)c(C(C)(C)C)c1	melting point	128 to 130 °C
OC1CCN(c2ccc(Br)cn2)CC1	melting point	91 to 93 °C

----------
endpoint.name: melting point

compound	val
O=C(CCl)Nc1ccccc1O	133 to 134 °C
O=C(O)Cc1c(C(=O)c2ccc(-c3cccs3)cc2)[nH]c2cc(Cl)ccc12	246 to 249 °C
CC(Oc1ccc(Oc2ccc(C(F)(F)F)cn2)cc1)C(=O)N1CCCO1 (centres undefined)	83 to 85 °C
CCCN1C(=O)CN=C(c2cccc(C(F)(F)F)c2)c2cc(OC)c(OC)cc21	135 to 137 °C
CCOC(=O)c1nc2ccc([N+](=O)[O-])cc2c(O)c1C(=O)OCC	264 °C
CCCCCCCCCCCCCCOc1cccc(C(=O)N(CC(=O)OC)CC(=O)OC)c1	< 23 °C
Cc1cc(NNC(=O)OC(C)(C)C)nnc1-c1cccc([N+](=O)[O-])c1	160 to 162 °C
CC(C)Cc1ccc(CCc2cc3c(s2)NC(=S)CN=C3c2ccccc2Cl)cc1	180 to 182 °C
Cc1nc(-c2cn(CCc3ccc(F)cc3)nn2)sc1C(=O)NCc1ccccc1	181 to 182 °C

----------
endpoint.name: melting point

compound	val
CCc1nnc2c(NC3CC3)nc3ccccc3n12	190 to 192 °C
CC(=O)Nc1ccc(C#CCCN2CC=C(c3ccccc3)CC2)cn1	169 to 170 °C
Cc1ccc(C(=O)c2[nH]c3cc(Cl)ccc3c2CC(=O)O)cc1	182 to 184 °C
Cc1cc(C)c(C2=C(OC(=O)C(C)(C)C)CN(C)C2=O)c(C)c1	75 °C
C#CCOC[C@@H](NC(C)=O)C(=O)OC	58.5 to 59.5 °C
COc1cc2c(c3c1OC(C)(C)C3)C(c1cccc(N)c1)=NC(C)(C)C2	131 to 134 °C
Nc1cccc(C(=O)c2cccc3ccccc23)c1O	211 °C
COc1ccc(S(=O)(=O)n2c(CCCC(=O)O)cc3cc(Cl)ccc32)cc1	138 to 142 °C
CC1CNCc2c1[nH]c1cnc3cc(Cl)ccc3c21 (stereo not given)	286 to 287 °C
O=C1CCC(N2C(=O)c3ccc(CNC(=O)c4ccccn4)cc3C2=O)C(=O)N1 (stereo not given)	212 to 214 °C

----------
Recorded melting point by entry
endpoint.name: melting point

compound	val
CC(C)C1Cc2cc(OCC(=O)O)c(Cl)c(Cl)c2C1=O (stereo not given)	161 to 164 °C
O=C(N[C@H](Cc1ccccc1)C(=O)O)OCc1cc2cc(-c3ccsc3)ccc2o1	169 to 170 °C
COC(=O)C1=Cc2cc(OCc3ccc(F)cc3)ccc2S(=O)(=O)CC1	141 to 143 °C
CCOC(=O)Cc1ccc(CC2(CNS(=O)(=O)c3ccc(Cl)cc3)CCCC2)cc1	117 to 119 °C
CON=CC1=CCCN(C(=O)Oc2ccc(C(C)(C)CC(C)(C)C)cc2)C1	91 to 93 °C
CNC1=NS(=O)(=O)N=C1NCCSCc1ccccn1	168 to 171 °C
NN1CCC2(CC1)OC(c1ccccc1)c1ccccc12 (stereo not given)	143 to 145 °C
CO[C@@H]([C@H](OC)[C@H](O)COS(C)(=O)=O)[C@H](O)COS(C)(=O)=O	112 to 114 °C
O=S(=O)(O)c1ccc(Nc2ccnc3cc(Cl)ccc23)cc1Cl	280 to 285 °C
CCOC(=O)CC(=O)c1cc(Cl)ccc1O	71.8 to 73.1 °C

Sourced from a melting point compilation (Tetko et al.; mined from patent text by program, amines drawn as free bases though some values may be those of a salt)
